# Experiment summary: Stat Signaling Pathway (AID 446);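 also: ME-180 cervical cancer cells given 40 pM IL-6 alongside compound; SIE-controlled beta-lactamase reporter measured as 460/530 nm FRET emission ratio; % is scaled to controls: 0 for no effect and ±100 for the full control effect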
# Measurement conditions: ME-180 (cervical carcinoma) SIE beta-lactamase reporter, IL-6 stimulated, 5 h; at 38 µM (top of the series)
# Description: NCGC Assay Overview: The IL-6/STAT signaling pathway was assayed in ME-180 cervical carcinoma cells by a beta-lactamase reporter gene controlled by a STAT Inducible Element (SIE). This reporter is induced by IL-6 at 40 pM AC50 and inhibited by the pan JAK inhibitor, 2-(1,1-Dimethylethyl)-9-fluoro-3,6-dihydro-7H-benz[h]-imidaz[4,5-f]isoquinolin-7-one, at approximately 10 nM AC50. Plated cells were incubated overnight and on the following day, stimulated with 40 pM IL-6 for 5 hrs. […]
Results filed as inconclusive are left out.
For each record, write down the corresponding activity, negative = inhibition.
Report the value in % with no unit label.

Name the recorded activity, negative = inhibition of the compound listed here: "CN=c1nc(-c2ccccc2)n(-c2ccccc2)s1"
8.46

Name the recorded activity, negative = inhibition of the compound listed here: "O=C1NC(O)=NC1(c1ccccc1)c1ccccc1"
-6.76

Name the recorded activity, negative = inhibition of the compound listed here: "CC1(C)CCC=[N+]1[O-]"
4.29

Name the recorded activity, negative = inhibition of the compound listed here: "O=C(Nc1ccccc1)c1cc([N+](=O)[O-])ccc1Cl"
-18.8

Name the recorded activity, negative = inhibition of the compound listed here: "NC[C@@H]1O[C@H](C23CC4CC(CC(C4)C2)C3)Cc2c1ccc(O)c2O"
0.327

Name the recorded activity, negative = inhibition of the compound listed here: "N[C@H](CCCP(=O)(O)O)C(=O)O"
14.7

Name the recorded activity, negative = inhibition of the compound listed here: "NCCCCC(=O)O"
0.307
